# ASSAYED_SYSTEM: IL17-RE-IL-17C (Homo sapiens, UniProt Q8NFR9+Q9P0M4)
# Sequence (Q9P0M4 whole entry): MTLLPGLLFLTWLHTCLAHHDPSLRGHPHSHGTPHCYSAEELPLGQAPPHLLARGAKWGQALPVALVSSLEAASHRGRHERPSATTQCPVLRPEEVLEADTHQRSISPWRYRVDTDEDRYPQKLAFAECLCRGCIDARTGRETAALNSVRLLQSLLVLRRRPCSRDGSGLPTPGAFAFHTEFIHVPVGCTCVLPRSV
# Sequence (Q8NFR9 whole entry): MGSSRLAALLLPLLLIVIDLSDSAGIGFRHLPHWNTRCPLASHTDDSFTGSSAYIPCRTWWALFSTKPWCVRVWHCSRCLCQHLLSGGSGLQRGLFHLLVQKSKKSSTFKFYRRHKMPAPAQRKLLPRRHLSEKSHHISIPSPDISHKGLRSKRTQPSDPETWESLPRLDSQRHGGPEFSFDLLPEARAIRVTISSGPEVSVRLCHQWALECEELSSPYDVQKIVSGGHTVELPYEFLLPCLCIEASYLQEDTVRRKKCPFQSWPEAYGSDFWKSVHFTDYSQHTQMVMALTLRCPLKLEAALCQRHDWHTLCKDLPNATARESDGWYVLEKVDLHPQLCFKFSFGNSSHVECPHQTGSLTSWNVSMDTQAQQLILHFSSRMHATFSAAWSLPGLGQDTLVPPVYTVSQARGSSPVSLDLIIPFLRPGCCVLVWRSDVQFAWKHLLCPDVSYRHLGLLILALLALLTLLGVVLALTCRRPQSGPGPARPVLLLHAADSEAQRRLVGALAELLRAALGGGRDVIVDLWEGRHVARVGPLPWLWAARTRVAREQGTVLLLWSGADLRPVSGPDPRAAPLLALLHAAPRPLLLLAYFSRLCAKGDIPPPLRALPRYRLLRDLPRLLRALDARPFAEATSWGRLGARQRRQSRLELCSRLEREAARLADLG
# ASSAY_DETAILS: Inhibition of interleukin-17RE/biotinylated IL-17C protein-protein interaction (unknown origin) incubated for 1 hrs by competitive ELISA
Bridge positions count the residues as written; N and C are the ends. Peptide text beside a SMILES is read from it.
PROPERTY_NAME: IC50 (nM)
Please state the figure in nM; there is no need to write the unit.

| COMPOUND | IC50 / nM |
| --- | --- |
| CC[C@H](C)[C@@H]1NC(=O)[C@H](CC(N)=O)NC(=O)[C@H](Cc2ccc(O)cc2)NC(=O)[C@H](Cc2ccc(O)cc2)NC(=O)[C@H](Cc2c[nH]cn2)NC(=O)[C@H](Cc2c[nH]cn2)NC(=O)[C@H](Cc2ccc(O)cc2)NC(=O)CSC[C@@H](C(=O)NCC(N)=O)NC(=O)CNC(=O)[C@H](CC(C)C)NC(=O)[C@H](CCC(=O)O)NC(=O)CNC(=O)[C@H](Cc2ccc(O)cc2)NC(=O)[C@H](CC(C)C)NC1=O ({CH2CO}-YHHYYNILYGELGCG-NH2; thioether N-14) | 2360 |

Turning now to a further record.
So what's the measured IC50 for this one? CC[C@H](C)[C@@H]1NC(=O)[C@H](CCCNC(=N)N)NC(=O)[C@H](Cc2ccc(O)cc2)NC(=O)[C@H](Cc2ccc(O)cc2)NC(=O)[C@H](CC(C)C)NC(=O)[C@H](Cc2c[nH]cn2)NC(=O)[C@H](Cc2ccc(O)cc2)NC(=O)CSC[C@@H](C(=O)NCC(N)=O)NC(=O)CNC(=O)[C@H](CC(C)C)NC(=O)[C@H](CCC(=O)O)NC(=O)CNC(=O)[C@H](Cc2ccc(O)cc2)NC(=O)[C@H](CC(C)C)NC1=O ({CH2CO}-YHLYYRILYGELGCG-NH2; thioether N-14)
68
